src = patent US11034717B2

molecular target: rTGR5 (Rattus norvegicus (Rat)); test: Cross species TGR5 activity, CHO cells, rat; assay type: cell-based
Sequence (Q80T02 whole entry): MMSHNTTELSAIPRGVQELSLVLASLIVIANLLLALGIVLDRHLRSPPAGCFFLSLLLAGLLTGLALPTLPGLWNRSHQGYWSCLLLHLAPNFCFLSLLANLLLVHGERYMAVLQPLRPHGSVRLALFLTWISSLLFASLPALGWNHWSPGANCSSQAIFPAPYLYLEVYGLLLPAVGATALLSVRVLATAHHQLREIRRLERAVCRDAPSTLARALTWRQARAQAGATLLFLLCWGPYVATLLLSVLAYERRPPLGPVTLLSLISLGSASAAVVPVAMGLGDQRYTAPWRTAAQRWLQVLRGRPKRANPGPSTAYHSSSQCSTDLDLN
measure: rTGR5 CHO EC50

• CC[C@H]1[C@@H](O)C2C3CC[C@H]([C@H](C)CCc4nc(=O)o[nH]4)[C@@]3(C)C[C@H](O)C2[C@@]2(C)CC[C@@H](O)C[C@@H]12 (some centres unmarked) = No activity
• CC[C@H]1[C@@H](O)C2C3CC[C@H]([C@H](C)Cc4nc(=O)o[nH]4)[C@@]3(C)C[C@H](O)C2[C@@]2(C)CC[C@@H](O)C[C@@H]12 (some centres unmarked) = No activity
• CC[C@H]1[C@@H](O)C2C3CC[C@H]([C@H](C)CCOS(=O)(=O)[O-])[C@@]3(C)C[C@H](O)C2[C@@]2(C)CC[C@@H](O)C[C@@H]12.[Na+] (some centres unmarked) = No activity
• CC[C@H]1[C@@H](O)C2C3CC[C@H]([C@H](C)CCCOS(=O)(=O)[O-])[C@@]3(C)C[C@H](O)C2[C@@]2(C)CC[C@@H](O)C[C@@H]12.[Na+] (some centres unmarked) = No activity
• CC[C@H]1[C@@H](O)C2C3CC[C@H]([C@H](C)CCC(=O)O)[C@@]3(C)C[C@H](O)C2[C@@]2(C)CC[C@@H](O)C[C@@H]12 (some centres unmarked) [Compound L1, reference compound] = No activity

----------
Attribute: pIC50
target: CYP2C9 (Homo sapiens (Human)); assay: CYP450 inhibition, fluorescent substrate, recombinant baculosomes; type: in vitro ADME; settings: read-out: CYP2C9 IC50
Sequence (P11712 whole entry): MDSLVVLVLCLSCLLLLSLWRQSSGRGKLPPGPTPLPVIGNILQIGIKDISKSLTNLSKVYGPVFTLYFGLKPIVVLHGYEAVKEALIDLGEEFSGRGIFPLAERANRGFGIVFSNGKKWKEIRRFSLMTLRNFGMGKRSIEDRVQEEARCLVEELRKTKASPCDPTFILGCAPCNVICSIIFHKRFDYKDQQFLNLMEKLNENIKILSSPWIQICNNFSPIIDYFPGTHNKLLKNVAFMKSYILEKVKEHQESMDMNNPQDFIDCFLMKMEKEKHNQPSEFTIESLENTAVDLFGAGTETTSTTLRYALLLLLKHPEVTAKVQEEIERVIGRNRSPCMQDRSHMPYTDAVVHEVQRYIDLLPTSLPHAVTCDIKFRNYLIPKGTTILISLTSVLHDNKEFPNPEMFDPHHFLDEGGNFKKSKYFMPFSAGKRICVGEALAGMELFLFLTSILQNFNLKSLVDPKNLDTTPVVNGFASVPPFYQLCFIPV
pIC50: −log10 of the molar value.
measure: pIC50

• CC[C@H]1[C@@H](O)C2C3CC[C@H]([C@H](C)Cc4nc(=O)o[nH]4)[C@@]3(C)C[C@H](O)C2[C@@]2(C)CC[C@@H](O)C[C@@H]12 (stereo partly drawn) = < 5.00
• CC[C@H]1[C@@H](O)C2C3CC[C@H]([C@H](C)CCC(=O)O)[C@@]3(C)C[C@H](O)C2[C@@]2(C)CC[C@@H](O)C[C@@H]12 (stereo partly drawn) [Compound L1, reference compound] = < 5.00
• CC[C@H]1[C@@H](O)C2C3CC[C@H]([C@H](C)CCc4nc(=O)o[nH]4)[C@@]3(C)C[C@H](O)C2[C@@]2(C)CC[C@@H](O)C[C@@H]12 (stereo partly drawn) = < 5.00

----------
target: CYP2C19 (Homo sapiens (Human), UniProt P33261); assay: CYP450 inhibition, fluorescent substrate, recombinant baculosomes; format: in vitro ADME
Sequence (P33261 whole entry): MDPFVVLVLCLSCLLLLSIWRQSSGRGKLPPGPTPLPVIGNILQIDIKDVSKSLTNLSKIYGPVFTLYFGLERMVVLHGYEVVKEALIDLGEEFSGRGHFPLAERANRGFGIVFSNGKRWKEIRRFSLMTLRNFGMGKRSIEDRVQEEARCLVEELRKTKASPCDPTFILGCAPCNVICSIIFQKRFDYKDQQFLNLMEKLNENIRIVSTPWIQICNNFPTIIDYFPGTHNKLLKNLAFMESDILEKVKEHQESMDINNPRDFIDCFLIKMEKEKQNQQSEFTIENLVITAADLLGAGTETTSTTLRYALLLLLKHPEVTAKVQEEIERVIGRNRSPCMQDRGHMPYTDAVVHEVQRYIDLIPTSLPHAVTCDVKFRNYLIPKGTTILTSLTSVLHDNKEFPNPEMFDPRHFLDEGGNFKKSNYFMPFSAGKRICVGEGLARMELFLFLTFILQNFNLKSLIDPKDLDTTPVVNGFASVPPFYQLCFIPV
pIC50: −log10 of the molar value.
measure: pIC50

* CC[C@H]1[C@@H](O)C2C3CC[C@H]([C@H](C)CCOS(=O)(=O)[O-])[C@@]3(C)C[C@H](O)C2[C@@]2(C)CC[C@@H](O)C[C@@H]12.[Na+] (some centres unmarked) [Compound 3, sodium salt] | < 5.00
* CC[C@H]1[C@@H](O)C2C3CC[C@H]([C@H](C)CCCOS(=O)(=O)[O-])[C@@]3(C)C[C@H](O)C2[C@@]2(C)CC[C@@H](O)C[C@@H]12.[Na+] (some centres unmarked) [Compound 5, sodium salt] | < 5.00

----------
Attribute: pIC50
biological target: CYP3A4 (Homo sapiens (Human), UniProt P08684); assay: CYP450 inhibition, fluorescent substrate, recombinant baculosomes; type: in vitro ADME; conditions: Green substrate; read-out: CYP3A4 (Green substrate) IC50
Sequence (P08684 whole entry): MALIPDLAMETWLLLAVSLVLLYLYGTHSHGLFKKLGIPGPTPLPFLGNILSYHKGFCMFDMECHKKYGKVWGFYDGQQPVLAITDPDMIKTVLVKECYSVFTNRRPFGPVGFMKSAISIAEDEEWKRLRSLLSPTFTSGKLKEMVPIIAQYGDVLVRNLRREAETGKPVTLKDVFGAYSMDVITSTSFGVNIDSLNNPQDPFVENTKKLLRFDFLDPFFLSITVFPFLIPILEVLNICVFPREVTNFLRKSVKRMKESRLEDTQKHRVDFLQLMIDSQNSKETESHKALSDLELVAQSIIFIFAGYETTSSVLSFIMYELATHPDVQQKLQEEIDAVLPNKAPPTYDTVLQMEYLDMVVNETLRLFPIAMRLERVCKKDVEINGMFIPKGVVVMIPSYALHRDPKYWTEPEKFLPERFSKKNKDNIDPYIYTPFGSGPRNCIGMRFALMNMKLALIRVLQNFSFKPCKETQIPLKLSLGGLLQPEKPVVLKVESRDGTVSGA
pIC50: −log10 of the molar value.
measure: pIC50

* CC[C@H]1[C@@H](O)C2C3CC[C@H]([C@H](C)Cc4nc(=O)o[nH]4)[C@@]3(C)C[C@H](O)C2[C@@]2(C)CC[C@@H](O)C[C@@H]12 (stereo partly drawn) | < 5.00
* CC[C@H]1[C@@H](O)C2C3CC[C@H]([C@H](C)CCC(=O)O)[C@@]3(C)C[C@H](O)C2[C@@]2(C)CC[C@@H](O)C[C@@H]12 (stereo partly drawn) [Compound L1, reference compound] | < 5.00
* CC[C@H]1[C@@H](O)C2C3CC[C@H]([C@H](C)CCc4nc(=O)o[nH]4)[C@@]3(C)C[C@H](O)C2[C@@]2(C)CC[C@@H](O)C[C@@H]12 (stereo partly drawn) | < 5.00
